Tested on: HeLa (cervix cancer) cells
EXPERIMENTAL PROTOCOL: In vitro cytotoxicity, crystal violet assay, HeLa
Assay type: cell-based, human
MEASUREMENT CONDITIONS: SI = IC50HaCaT/IC50HeLa
Tag: class 1 if measured Selectivity Index (SI) is not below 1, class 0 if it is.

Recorded results for 4 molecules are shown here.
* COC(=O)C1C(c2nc3ccccc3s2)=Cc2cc3c(cc2C1c1cc(OC)c(OC)c(OC)c1)OCO3 (stereo not drawn) | class 1
* COC(=O)[C@H]1C(c2nc3ccccc3s2)=Cc2cc3c(cc2[C@H]1c1cc(OC)c(O)c(OC)c1)OCO3 | class 1
* COC(=O)[C@H]1C(c2nc3ccccc3s2)=Cc2cc(O)c(O)cc2[C@H]1c1cc(OC)c(O)c(OC)c1 | class 0
* COc1cc([C@@H]2c3cc4c(cc3[C@@H](O[C@@H]3O[C@@H]5CO[C@@H](C)O[C@H]5[C@H](O)[C@H]3O)[C@H]3COC(=O)[C@H]23)OCO4)cc(OC)c1O [Compound 2, etoposide, reference compound] | class 0

Query :: Decide: Selectivity Index (SI) of COC(=O)C1C(c2nc3cc(Cl)ccc3s2)=Cc2cc3c(cc2C1c1cc(OC)c(OC)c(OC)c1)OCO3 (stereo not drawn) >= 1?
Result :: class 1

Query :: Decide: Selectivity Index (SI) of COc1cc([C@@H]2c3cc4c(cc3[C@H](O)[C@H]3COC(=O)[C@H]23)OCO4)cc(OC)c1OC >= 1?
Result :: class 0

Hey, just so you know, these numbers are from paper PMC12250170.
